What IC50 was measured for each of the following?
assay: Cytotoxicity against mouse EL4 cells assessed as reduction in cell viability after 72 hrs by MTT assay; assay type: functional, cell-based; conditions: EL4, 72 h
Could you give me the number in µM? Just the number is fine.

Challenge: Give its IC50 value. Item: "C/C(=N/Nc1ccc([N+](=O)[O-])cc1[N+](=O)[O-])C(c1c[nH]c2ccccc12)c1c[nH]c2ccccc12"
Response given: 5.45

Challenge: And what about the compound COc1cc([C@@H]2c3cc4c(cc3[C@@H](O[C@@H]3O[C@@H]5CO[C@@H](C)O[C@H]5[C@H](O)[C@H]3O)[C@H]3COC(=O)[C@H]23)OCO4)cc(OC)c1O [ETOPOSIDE] ?
Response given: 4.9

Challenge: And what about the compound "C/C(=N/NC(=O)OC(C)(C)C)C(c1cn(C)c2ccccc12)c1cn(C)c2ccccc12" ?
Response given: 9.99

Challenge: And what about the compound "C/C(=N/NC(=O)OC(C)(C)C)C(c1c[nH]c2ccccc12)c1c[nH]c2ccccc12" ?
Response given: 15.3
